Ref: PubChem BioAssay (NCI)

tested on: A498 renal; test: NCI-60 one-dose screen, 48 h; conditions: 10 µM unless noted
About 83,000 compounds went through this panel and 20% of them were active in at least one assay; those are over-represented in the sample as a whole. Active and inactive are the calls of the source. The calls were made as follows: active = growth percent below 10; inactive = the rest.
Outcome (select one): active, inactive

Worked cases, answers included:
Brc1cccc(-c2cc(-c3ccc4c(c3)OCCO4)[nH]n2)c1 :: active
C=C1CCC2C3(C)COC(c4ccc(SC)cc4)OC3CCC2(C)C1C/C=C1/C(=O)OCC1O (stereo not given) :: inactive
Cn1c(=O)c2[nH]c(C(O)C(O)C(O)C(O)CO)nc2n(C)c1=O (stereo not given) :: inactive
COc1ccc(CCN2CCCn3c2nc2ccccc2c3=O)cc1 :: active
COc1cc(OC)c(/C=C/S(=O)(=O)Cc2cnc(OC)c(N)c2)c(OC)c1 :: active

Kindly consider the entry below.
## Input Please state the recorded outcome for this molecule: "COc1ccc2[nH]c(=O)c(/C=C/C(=O)c3ccc(Nc4nccc(-c5ccc6ccccc6c5)n4)cc3)cc2c1"
## Output inactive

---

tested on: PC-3 prostate; assay: NCI-60 one-dose screen, 48 h; settings: 10 µM unless noted
Compounds without any hit were thinned out: in the full panel of roughly 83,000, 20% have a hit. Active and inactive are the calls of the source. The calls were made as follows: active = growth percent below 10; inactive = the rest.
Outcome (select one): active, inactive

CCOC(=O)c1ccc2c(c1)nc(/C=C/c1ccc(Cl)cc1)n2-c1cc(C(C)(C)C)[nH]n1 :: inactive

## Input Please state the recorded outcome for this molecule: "Cc1cc(N/N=C/c2nc(-c3ccc(Cl)cc3)oc2C)c2cc(Cl)ccc2n1"
## Output inactive

## Input Please state the recorded outcome for this molecule: "CC(C)[C@H]1COC(=O)N1[C@@H]1C(=O)N([C@@H](CCC(=O)N2CCN(C3CCCC3)CC2)C(=O)N[C@@H]2CCCc3ccccc32)[C@@H]1/C=C/c1cccc(Br)c1"
## Output inactive

## Input Please state the recorded outcome for this molecule: "CCN(CC)CC(C)(C)C(=O)/C=C/c1ccccc1"
## Output inactive

## Input Please state the recorded outcome for this molecule: "CNc1nc(C)c(-c2nc(Nc3cccc(S(N)(=O)=O)c3)ncc2F)s1"
## Output inactive

## Input Please state the recorded outcome for this molecule: O=C1Nc2ccccc2C12CC(c1ccccc1)=NN2 (centres undefined)
## Output inactive

## Input Please state the recorded outcome for this molecule: "C[C@]12C[C@@H](c3ccoc3)OC(=O)[C@@H]1CC[C@]1(C)[C@@H]2CC[C@@H](O)[C@]1(C)O"
## Output inactive

## Input Please state the recorded outcome for this molecule: "CCc1ccc(C(c2ccc(CC)cc2)C(Cl)(Cl)CCl)cc1"
## Output inactive

## Input Please state the recorded outcome for this molecule: COc1ccc(C2CC(=O)Nc3c2c(C)nn3-c2nc3ccccc3[nH]2)cc1 (centres undefined)
## Output inactive

## Input Please state the recorded outcome for this molecule: "CC[C@]12C=CCN3CC[C@@]4(c5ccc(OC)cc5N(C)[C@H]4[C@@](O)(C(=O)OC)[C@@H]1OC(=O)CCC(=O)N[C@@H](Cc1c[nH]c4ccccc14)C(=O)OC)[C@@H]32"
## Output inactive

## Input Please state the recorded outcome for this molecule: "CCCCCCCCCCCCCCCC[N+]1(CC)CCCC1"
## Output active

## Input Please state the recorded outcome for this molecule: "COc1cccc(NC(=O)c2sc3nc4c(cc3c2N)CN(Cc2ccccc2)CC4)c1"
## Output inactive

## Input Please state the recorded outcome for this molecule: "CN1CCN(Cc2ccc(NC(=O)c3[nH]ncc3Nc3ccnc4ccsc34)cc2)CC1"
## Output inactive

## Input Please state the recorded outcome for this molecule: O=C1C2CC=CCC2C(=O)N1CNc1ccc(Cl)cc1 (centres undefined)
## Output inactive

## Input Please state the recorded outcome for this molecule: Cn1c(=O)c2[nH]c(C(O)C(O)C(O)C(O)CO)nc2n(C)c1=O (centres undefined)
## Output inactive

## Input Please state the recorded outcome for this molecule: "COc1ccc(S(=O)(=O)NCCNc2nccc(-c3c(-c4cccc([N+](=O)[O-])c4)nc4sccn34)n2)cc1"
## Output inactive

---

Let's look at some molecules and their measured growth.
tested on: PC-3 prostate; assay: NCI-60 one-dose screen, 48 h (100 = growth as untreated, 0 = no growth, -100 = all killed); details: 10 µM unless noted
Compounds without any hit were thinned out: in the full panel of roughly 83,000, 20% have a hit.
Response body: numeric value in %, unit text excluded.

Recorded results for 5 molecules are shown here.
CC(=O)C1=C(O)C=C2Oc3c(C(=O)/C=C/c4cc(Cl)cc(Cl)c4)c(O)c(C)c(O)c3[C@]2(C)C1=O :: -21.1
CCC(c1ccc(O)cc1)C(CC)c1ccc(O)c(F)c1 (stereo not drawn) :: 72.1
COC(=O)[C@@H]1CC[C@]2(C)[C@H](CC[C@@H]3O[C@@]32C)[C@@]1(C)CC(=O)c1ccoc1 :: 86
CN(C)CC(=O)Nc1ccc(Cn2nnc3c2C(=O)c2nnn(Cc4ccc(NC(=O)CN(C)C)cc4)c2C3=O)cc1 :: 1.37
C[C@@]1(N2C(=O)OC[C@@H]2c2ccccc2)C(=O)N([C@H](CC(=O)N2CCC(N3CCCCC3)CC2)C(=O)NCc2cccc(C(F)(F)F)c2)[C@@H]1/C=C/c1ccccc1 :: 52.8

## Input Please look up its growth: C=CC[N+]1(CC)CCN=C1CCCCCCCCCCCCCCCCC (stereo not drawn)
## Output -68.6

## Input Please look up its growth: Cc1nn(-c2nc3ccccc3[nH]2)c2c1C(c1ccc3c(c1)OCO3)CC(=O)N2 (stereo not drawn)
## Output 21.6

## Input Please look up its growth: C=C1CC[C@@H]2[C@](C)(COC(C)=O)[C@H](OC(C)=O)CC[C@@]2(C)[C@@H]1CC(NCc1ccc(F)cc1)C1=CCOC1=O (stereo partly drawn)
## Output 20.8

---

tested on: OVCAR-5 ovarian; assay: NCI-60 one-dose screen, 48 h (100 = growth as untreated, 0 = no growth, -100 = all killed); details: 10 µM unless noted
This is part of a sample that, as a whole, favours compounds with a hit. Of some 83,000 tested, about 20% had one in any assay.
property label: growth (%)
Response body: numeric value in %, unit text excluded.

Recorded results for 3 compounds are shown here.
CCOC(=S)SCc1ccc(Cl)cc1 :: 95.6
O=C(CNC1C2CC3CC(C2)CC1C3)Sc1nnc2sc3ccccc3n12 (stereo not given) :: 100
Oc1c(Cl)cc(Cl)cc1CNc1nccnn1 :: 101

## Input Please look up its growth: "CC(=O)N1CC(Nc2ccc(OC(F)(F)F)cc2)=CC1=O"
## Output 92.6

## Input Please look up its growth: CC1CN(Cc2ccco2)C(=S)N(c2ccccc2)C1=O (stereo not given)
## Output 105

## Input Please look up its growth: "C[C@@H]1CC[C@@H]2[C@@H]1[C@H](OC(=O)/C=C/c1ccccc1)[C@]1(c3ccccc3)C[C@@H](OC(=O)CO)[C@@]2(C)O1"
## Output 99.8

## Input Please look up its growth: Cc1nn(-c2nc3ccccc3[nH]2)c2c1C(c1ccc3c(c1)OCO3)CC(=O)N2 (stereo not given)
## Output 105

## Input Please look up its growth: "COc1cc(-c2c3sc(=O)[nH]c3nc3c2c(=O)[nH]n3C(C)C)cc2c1OCO2"
## Output 96.6

## Input Please look up its growth: "COc1cnc2c(c1)C(=O)c1c-2n(CCCN2CCN(C)CC2)c(=O)c2cc([N+](=O)[O-])ccc12"
## Output 111

## Input Please look up its growth: "COc1ccc(/C(=C/c2ccc3ccccc3c2)c2nn[nH]n2)cc1OC"
## Output 60

---

test system: SK-MEL-2 melanoma; test: NCI-60 one-dose screen, 48 h; settings: 10 µM unless noted
This is part of a sample that, as a whole, favours compounds with a hit. Of some 83,000 tested, about 20% had one in any assay. The source made the active and inactive calls. Rule for the calls: active = growth percent below 10; inactive = the rest.
Outcome (select one): 1 (active), 0 (inactive)

CN1CCN(c2ccc3nc(-c4ccc5nc(-c6ccc(OCCC(C)(C)C)cc6)[nH]c5c4)[nH]c3c2)CC1 :: 1
Cc1ccc(/C=C2\Oc3cc(OCC(=O)c4ccc(Cl)cc4)ccc3C2=O)cc1 :: 0
CCN(CC)CC#CCOC(=O)[C@]1(C)CCC[C@@]2(C)[C@H]1CC(C=O)=C1C=C(C(C)C)CC[C@@H]12 :: 0
Cc1ccc2c(c1)C(=O)c1c-2c(OCCCN(C)C)nc2ccccc12 :: 0

## Input Please state the recorded outcome for this compound: "Nc1cccc(-c2nc3sccn3c2-c2ccnc(NCCCNS(=O)(=O)c3ccc(C(F)(F)F)cc3)n2)c1"
## Output 1

## Input Please state the recorded outcome for this compound: "Brc1cccc(-c2cc(-c3ccc4c(c3)OCCO4)[nH]n2)c1"
## Output 0

## Input Please state the recorded outcome for this compound: "N#Cc1c(N)nc(N)nc1Nc1ccc(Br)cc1"
## Output 0

## Input Please state the recorded outcome for this compound: "COc1ccc(CCN2CCCn3c2nc2ccccc2c3=O)cc1"
## Output 0

## Input Please state the recorded outcome for this compound: "Nc1cc2ccncc2c2ccccc12"
## Output 0

## Input Please state the recorded outcome for this compound: "CC(C)(C)n1cc(-c2ccnc(NCCNS(=O)(=O)c3ccccc3)c2)c(-c2cccc(O)c2)n1"
## Output 0

## Input Please state the recorded outcome for this compound: "CCNS(=O)(=O)c1ncnc2nc[nH]c12"
## Output 0
